Assay read-out pIC50; system under study: MAGL (Homo sapiens (Human), UniProt Q99685).
Sequence (Q99685 whole entry, species assumed): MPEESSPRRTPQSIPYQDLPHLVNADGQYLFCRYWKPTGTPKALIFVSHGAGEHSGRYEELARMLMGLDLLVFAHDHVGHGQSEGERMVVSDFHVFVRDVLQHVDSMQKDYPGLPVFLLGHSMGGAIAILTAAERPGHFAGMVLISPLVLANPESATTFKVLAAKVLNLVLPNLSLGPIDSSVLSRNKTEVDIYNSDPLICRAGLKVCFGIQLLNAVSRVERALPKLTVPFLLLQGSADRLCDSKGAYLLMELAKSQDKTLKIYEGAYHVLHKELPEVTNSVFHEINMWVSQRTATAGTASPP
pIC50: −log10 of the molar value.
Quantity: pIC50

[a] C[C@@H]1c2nn(C)c(-c3cc(Cl)cc(S(N)(=O)=O)c3)c2CCN1C(=O)c1ncn(-c2ccc[nH]c2=O)n1 [Example 63]
[b] C[C@H]1c2nn(C)c(-c3cc(F)cc(F)c3)c2CCN1C(=O)c1cc(F)cc(-c2c[nH]c(C#N)c2)c1Cl [Example 36]
Q: I'm curious whether a or b has the smaller pIC50 number. Which is it? Refer to your chosen entry by its label in the reply.
A: a
(a: 6.26, b: 7.77)
